The reported numbers originate from the supplement of paper PMC6757056.

B1: library; a variant is named by its letters at N, in order (parent)
chain: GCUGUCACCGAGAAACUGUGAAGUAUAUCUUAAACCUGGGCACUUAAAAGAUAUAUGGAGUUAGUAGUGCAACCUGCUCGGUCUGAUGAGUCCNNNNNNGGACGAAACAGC

# Variants of: B1
# EXPERIMENT: normalized RNA/DNA level without ligand (relative to sTRSVctl = 100) (log10 (% of sTRSVctl)); HEK293T; ligand: cyclic di-GMP (c-di-GMP-II aptamer); higher = less ribozyme self-cleavage, higher mRNA level
# CONDITION INFO: reporter: mCherry (pCS4076), ligand present: no
MEASUREMENT LABEL: normalized RNA/DNA level without ligand (log10)
Quick one: just the number, no unit, thanks!

A selection of reference data follows.
GCUGUCACCGAGAAACUGUGAAGUAUAUCUUAAACCUGGGCACUUAAAAGAUAUAUGGAGUUAGUAGUGCAACCUGCUCGGUCUGAUGAGUCCCGGGGCGGACGAAACAGC; 1.73
GCUGUCACCGAGAAACUGUGAAGUAUAUCUUAAACCUGGGCACUUAAAAGAUAUAUGGAGUUAGUAGUGCAACCUGCUCGGUCUGAUGAGUCCACUCCGGGACGAAACAGC; 1.75
GCUGUCACCGAGAAACUGUGAAGUAUAUCUUAAACCUGGGCACUUAAAAGAUAUAUGGAGUUAGUAGUGCAACCUGCUCGGUCUGAUGAGUCCUGCUUAGGACGAAACAGC; 1.75
GCUGUCACCGAGAAACUGUGAAGUAUAUCUUAAACCUGGGCACUUAAAAGAUAUAUGGAGUUAGUAGUGCAACCUGCUCGGUCUGAUGAGUCCAAGUAUGGACGAAACAGC; 1.62
GCUGUCACCGAGAAACUGUGAAGUAUAUCUUAAACCUGGGCACUUAAAAGAUAUAUGGAGUUAGUAGUGCAACCUGCUCGGUCUGAUGAGUCCUUUGGAGGACGAAACAGC; 1.65

In: Which normalized RNA/DNA level without ligand (log10) reading was recorded for the variant GCUGUCACCGAGAAACUGUGAAGUAUAUCUUAAACCUGGGCACUUAAAAGAUAUAUGGAGUUAGUAGUGCAACCUGCUCGGUCUGAUGAGUCCUAGUCGGGACGAAACAGC ?
Out: 1.8

In: Same question for GCUGUCACCGAGAAACUGUGAAGUAUAUCUUAAACCUGGGCACUUAAAAGAUAUAUGGAGUUAGUAGUGCAACCUGCUCGGUCUGAUGAGUCCUAGAGCGGACGAAACAGC please.
Out: 1.71
